assay text: qHTS assay for cell viability of the p53RE-bla HCT-116 cell line (AID 743292); further: on the % scale 0 is the no-effect control and ±100 the full control effect; nearly all actives have a fitted effect of over 55% in size
test conditions: p53RE-bla HCT-116 viability, ATP luminescence, 16 h; series mostly up to 95 µM
Records with an inconclusive call do not appear. The source made the active and inactive calls. The call rests on the fitted dose curve; in most records, active means well fitted cell-killing curve with a large enough effect; inconclusive means small, poorly fitted or top-dose-only effect, or effect the other way; inactive means flat fitted curve, though single readings scatter.
Hi! Could you answer with just one of these? TRUE = active, FALSE = inactive

Lookup: Call for entry Nc1cc(Cl)cc(C(=O)O)c1Cl :
Found: FALSE

Lookup: Call for entry Oc1cc(Cl)c(Cl)c(Cl)c1 :
Found: FALSE

###

assay text: qHTS assay for small molecule agonists of retinoid X receptor alpha signaling (AID 588544)
test conditions: HEK293T RXRa-UAS-bla, beta-lactamase reporter, 18 h; 530 nm emission
Results filed as inconclusive are left out.
max response values for the compounds below.
Lab book: enter the figure in %, no units written.

> print(dat)
                  compound  scale.unit  value
1                   ClCCBr           %  -16.9
2  Oc1c(Cl)c(Cl)cc(Cl)c1Cl           %   19.2

max response in this record for CCCCCC[N+](=O)[O-] : -16.5

max response in this record for COC(=O)c1ccccc1N : -15.1

max response in this record for Cc1cc(-c2cc(C)c(N)c(C)c2)cc(C)c1N : -7.36

###

assay text: Cell Viability - SH-SY5Y (AID 544);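 further: cells exposed to compound for 40 hours; nearly all actives have a fitted effect of over 55% in size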
test conditions: SH-SY5Y neuroblastoma cell viability
Records with an inconclusive call do not appear. Activity calls are given as the source filed them. Calls follow the shape of the dose curve; as a rule, active = well fitted cell-killing curve with a large enough effect; inconclusive = small, poorly fitted or top-dose-only effect; inactive = flat fitted curve, though single readings scatter.
Hi! Could you answer with just one of these? t = active, f = inactive

Use these answered entries as a reference point.
> print(dat)
                   compound  assigned.label
1  COC(=O)Nc1nc2ccccc2[nH]1               t
2           Nc1cccc2ccccc12               f
3                  C=CCCC#N               f
4           Oc1cccc(Cl)c1Cl               f
5          CCCC[N+](=O)[O-]               f

Lookup: Call for entry O=C(O)C(Cl)(Cl)Br :
Found: f

Lookup: Call for entry CSSC :
Found: f

Lookup: Call for entry O=C(Cl)c1ccccc1F :
Found: f

Lookup: Call for entry C/C=C/C=O :
Found: f

Lookup: Call for entry O=Cc1ccc2c(c1)OCO2 :
Found: f

Lookup: Call for entry ClCCBr :
Found: f

Lookup: Call for entry CC(C)OC(=O)Cc1ccccc1 :
Found: f

Lookup: Call for entry CCCCNC(=O)n1c(NC(=O)OC)nc2ccccc21 :
Found: t

Lookup: Call for entry O=C(Cl)OCc1ccccc1 :
Found: f

###

assay text: qHTS assay for cell viability of the p53RE-bla HCT-116 cell line (AID 743292); further: on the % scale 0 is the no-effect control and ±100 the full control effect; nearly all actives have a fitted effect of over 55% in size
test conditions: p53RE-bla HCT-116 viability, ATP luminescence, 16 h; series mostly up to 95 µM
Inconclusive results are not listed. Active and inactive are the calls of the source. The call rests on the fitted dose curve; in most records, active means well fitted cell-killing curve with a large enough effect; inconclusive means small, poorly fitted or top-dose-only effect, or effect the other way; inactive means flat fitted curve, though single readings scatter.
observation type: outcome

Examples with answers:
> print(dat)
                                   compound     value
1                         CC(C)(C)c1ccccc1O  inactive
2  CCCCCCCCCCCOC(=O)c1ccccc1C(=O)OCCCCCCCCCCC  inactive
3                                 BrC(Br)Br  inactive
4  CC(C)(COCC1CO1)COCC1CO1 (stereo not drawn)  inactive
5                            [N-]=[N+]=[N-]  inactive

outcome in this record for COC(=O)Nc1nc2ccccc2[nH]1 : inactive

outcome in this record for O=[N+]([O-])c1cccc(O)c1 : inactive

outcome in this record for O=c1ccc(=O)[nH][nH]1 : inactive
